These data points were gathered from patent US11173151B2.

target-system: human V2 receptor (Homo sapiens, UniProt P30518)
Construct: expressed in transfected cells; host or cells: CHO K1 (ATCC) expressing firefly luciferase under a CRE-responsive promoter
Sequence (P30518 whole entry): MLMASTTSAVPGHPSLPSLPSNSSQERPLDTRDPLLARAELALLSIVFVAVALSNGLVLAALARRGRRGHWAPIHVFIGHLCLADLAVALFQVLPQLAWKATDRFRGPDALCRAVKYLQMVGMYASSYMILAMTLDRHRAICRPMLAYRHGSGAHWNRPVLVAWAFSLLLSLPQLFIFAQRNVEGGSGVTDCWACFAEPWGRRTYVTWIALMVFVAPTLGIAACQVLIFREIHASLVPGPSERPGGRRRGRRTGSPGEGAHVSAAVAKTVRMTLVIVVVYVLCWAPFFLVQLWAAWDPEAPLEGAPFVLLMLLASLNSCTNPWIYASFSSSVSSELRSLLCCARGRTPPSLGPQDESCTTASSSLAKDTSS
experiment-description: Cellular in vitro assay for determining vasopressin receptor activity, V2 receptor cell line (CHO, CRE-luciferase)
Type: cell-based
condition-info: CHO cell line transfected with human V2 receptor; [Arg8]-vasopressin at EC50 concentration, 3 hours; read-out: IC50 hV2
pIC50: −log10 of the molar value.
quantity: pIC50

CC[C@@H](C)C(=O)Nc1ncccc1-n1cnc(Cn2nc(-c3ccc(Cl)cc3)n(C[C@H](O)C(F)(F)F)c2=O)n1: 6.60
O=C(Nc1ccccc1)c1ccccc1-n1cnc(Cn2nc(-c3ccc(Cl)cc3)n(C[C@H](O)C(F)(F)F)c2=O)n1: 7.83
NC(=O)[C@@H]1CCCN1C(=O)c1ccccc1-n1cnc(Cn2nc(-c3ccc(Cl)cc3)n(C[C@H](O)C(F)(F)F)c2=O)n1: 5.62
CC(NC(=O)c1ccccc1-n1cnc(Cn2nc(-c3ccc(Cl)cc3)n(C[C@H](O)C(F)(F)F)c2=O)n1)c1ccon1 (stereo partly drawn): 6.77

I. O=C(c1ccccc1-n1cnc(Cn2nc(-c3ccc(Cl)cc3)n(C[C@H](O)C(F)(F)F)c2=O)n1)N1CCSCC1
II. NC(=O)[C@@H]1CCN(C(=O)c2ccccc2-n2cnc(Cn3nc(-c4ccc(Cl)cc4)n(C[C@H](O)C(F)(F)F)c3=O)n2)C1
III. Cc1cc(NC(=O)c2ccccc2-n2cnc(Cn3nc(-c4ccc(Cl)cc4)n(C[C@H](O)C(F)(F)F)c3=O)n2)ccn1
IV. O=C(Nc1cccnc1-n1cnc(Cn2nc(-c3ccc(Cl)cc3)n(C[C@H](O)C(F)(F)F)c2=O)n1)C1CC1(F)F (single isomer, unassigned) [Example 43]
V. O=CN1CCN(C(=O)c2ccccc2-n2cnc(Cn3nc(-c4ccc(Cl)cc4)n(C[C@H](O)C(F)(F)F)c3=O)n2)CC1
Exercise: Ordering: ascending pIC50. Please respond by ranking the labels in the order requested.
Key: V, II, I, III, IV

P. O=C(Nc1ncccc1-n1cnc(Cn2nc(-c3ccc(Cl)cc3)n(C[C@H](O)C(F)(F)F)c2=O)n1)c1ccccc1O
Q. O=C(Nc1ccncc1)c1ccccc1-n1cnc(Cn2nc(-c3ccc(Cl)cc3)n(C[C@H](O)C(F)(F)F)c2=O)n1
Exercise: Lab notebook, comparison: P versus Q , higher pIC50 goes to which? Pick one; state its label.
Key: Q
(Q: 6.17, P: 5.71)
